Provenance of the data: patent US6887896B1

Measured on: UniProt P10826
Sequence (P10826 183-417 limits assumed): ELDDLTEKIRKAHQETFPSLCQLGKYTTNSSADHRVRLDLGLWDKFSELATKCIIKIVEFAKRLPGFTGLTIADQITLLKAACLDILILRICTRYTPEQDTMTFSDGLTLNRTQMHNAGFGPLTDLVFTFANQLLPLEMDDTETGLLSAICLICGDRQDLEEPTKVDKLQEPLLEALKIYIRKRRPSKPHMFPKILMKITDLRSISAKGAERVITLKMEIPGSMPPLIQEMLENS
Assay info: chimeric receptor transactivation assay, RARβ
Conditions used: chimeric receptor transactivation; read-out: RAR Trans. EC50 β
Source text: Specifically, one such assay is a chimeric receptor transactivation assay which tests for agonist-like activity in the R RAPE and RAR7 receptor subtypes, and which is based on work published by Feigner, P. L. and Holm, M (1989) Focus, 112 is described in detail in U.S. Pat. No. 5,455,265. The specification of U.S. Pat. No. 5,455,265 is hereby expressly incorporated by reference. […]
Provide the reported EC50 of each item.

Q. Please report the measured EC50 for `CCOc1c(\C(CC)=C(F)/C=C/C(C)=C/C(=O)O)cc2c(c1Br)C(C)(C)CC=C2C(C)C`
A. 0.0035 µM

Q. Write down EC50 measured for item `CCOc1cc2c(cc1\C(=C/C=C/C(C)=C/C(=O)O)CC)C(C)=CC(C)(C)O2`
A. 0.305 µM

Q. Quick one: give measured EC50 for `CCOc1cc2c(cc1\C(CC)=C(F)/C=C/C(C)=C/C(=O)O)C(CC)=CCC2(C)C`
A. 0.043 µM

Q. Input `CCCOc1cc2c(cc1\C(C)=C(F)/C=C/C(C)=C/C(=O)O)C(C(C)(C)C)=CCC2(C)C` , output reported EC50.
A. 0.056 µM

---

Measured on: RXRα (Homo sapiens, UniProt P19793)
Construct: expressed in transfected cells
Assay info: holoreceptor transactivation assay, RXRα
Type: cell-based
Conditions used: percentage compared to the standard compound; read-out: RXR Trans. efficacy (number in parentheses) α
Kindly return fulfilled if reported Emax is no lower than 40%; return not fulfilled if it is lower.

Q. Quick check, Emax >= 40%? CCCOc1c(\C(C)=C(F)/C=C/C(C)=C/C(=O)O)cc2c(c1Br)C(C)(C)CC=C2C(C)C [Compound A-173]
A. not fulfilled

Q. # bool: Emax of COc1cc2c(cc1\C(C)=C(F)/C=C/C(C)=C/C(=O)O)C(C(C)(C)C)=CC(C)(C)O2 [Compound 122] >= 40%
A. not fulfilled

Q. # check: Emax of CCOc1c(\C(CC)=C(F)/C=C/C(C)=C/C(=O)O)cc2c(c1Br)C(C)(C)CC=C2C(C)CC (stereo not drawn) [Compound A-176] is greater than or equal to 40%
A. fulfilled

Q. Tell me whether Emax is at least 40% here: CC/C(=C(F)/C=C/C(C)=C/C(=O)O)c1cc2c(cc1OC)OC(C)(C)C=C2C(C)C [Compound 130]
A. fulfilled

Q. hey, is Emax for this one >= 40%? CCOc1c(\C(C)=C(F)/C=C/C(C)=C/C(=O)O)cc2c(c1Br)C(C)(C)CC=C2C(C)(C)C [Compound A-174]
A. not fulfilled

Q. Has COc1cc2c(cc1\C(C)=C(F)/C=C/C(C)=C/C(=O)O)C(C(C)C)=CC(C)(C)O2 [Compound 121] a recorded Emax greater than or equal to 40%?
A. fulfilled

Q. Determine whether this molecule has Emax no lower than 40%: COc1c(\C(C)=C(F)/C=C/C(C)=C/C(=O)O)cc2c(c1Cl)OC(C)(C)C=C2C(C)C [Compound 170]
A. fulfilled

Q. Answer whether Emax of CC/C(=C/C=C/C(C)=C/C(=O)O)c1cc2c(cc1OC)OC(C)(C)C=C2C(C)C [Compound 44] is greater than or equal to 40%.
A. fulfilled

Q. Can CCOc1c(\C(C)=C(F)/C=C/C(C)=C/C(=O)O)cc2c(c1Cl)C(C)(C)CC=C2C(C)C [Compound A-177] be said to have Emax at or above 40%?
A. fulfilled

Q. Determine whether measured Emax meets or exceeds 40% for `CCOc1cc2c(cc1\C(C)=C(F)/C=C/C(C)=C/C(=O)O)C(C)=CCC2(C)C`
A. fulfilled

Q. Hi, just wondering whether CCOc1cc2c(cc1\C(CC)=C(F)/C=C/C(C)=C/C(=O)O)C(C(C)(C)C)=CCC2(C)C [Compound A-83] shows Emax of 40% or higher.
A. not fulfilled

Q. I'd appreciate it if you could say whether CC(/C=C/C(F)=C(/C)c1cc2c(c(Cl)c1OC(C)C)OC(C)(C)C=C2C(C)C)=C\C(=O)O [Compound 174] has Emax at least equal to 40%.
A. not fulfilled

Q. Given the entry CC/C(=C(F)/C=C/C(C)=C/C(=O)O)c1cc2c(cc1OC)OC(C)(C)C=C2C(C)(C)C [Compound 131] , answer whether its Emax meets or surpasses 40%.
A. not fulfilled

Q. Answer whether Emax of CCOc1cc2c(cc1\C(C)=C(F)/C=C/C(C)=C/C(=O)O)C(C(C)C)=CCC2(C)C [Compound A-79] is greater than or equal to 40%.
A. fulfilled

Q. Item CCOc1cc2c(cc1\C(CC)=C(F)/C=C/C(C)=C/C(=O)O)C=CCC2(C)C [Compound A-77] with Emax of 40% or above?
A. fulfilled

---

Measured on: RARα (Homo sapiens)
Sequence (P10276 183-417 limits assumed): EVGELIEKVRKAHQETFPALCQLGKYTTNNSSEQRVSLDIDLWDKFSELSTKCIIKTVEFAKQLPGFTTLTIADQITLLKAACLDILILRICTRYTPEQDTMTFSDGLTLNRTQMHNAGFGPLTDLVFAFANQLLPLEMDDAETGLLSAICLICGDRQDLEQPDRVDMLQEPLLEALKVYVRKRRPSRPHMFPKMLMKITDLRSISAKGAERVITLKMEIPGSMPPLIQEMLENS
Assay info: chimeric receptor transactivation assay, RARα
Conditions used: chimeric receptor transactivation; read-out: RAR Trans. EC50 α
Please go through the items and note down their EC50.
Answer with a number only, understood to be in nM.

Q. Fill in reported EC50 for this entry: CCOc1c(\C(CC)=C(F)/C=C/C(C)=C/C(=O)O)cc2c(c1Cl)C(C)(C)CC=C2C(C)C [Compound A-178]
A. 1

Q. Recall and state the measured EC50 for CCOc1c(\C(=C(F)/C=C/C(C)=C/C(=O)O)C(C)C)cc2c(c1Br)C(C)(C)CC=C2C(C)C [Compound A-171] .
A. 3

Q. Tell me EC50 reported for CC/C(=C(F)/C=C/C(C)=C/C(=O)O)c1cc2c(cc1OC)OC(C)(C)C=C2C(C)C [Compound 130]
A. 218

Q. Fill in EC50 for record COc1cc2c(cc1\C(C)=C/C=C/C(C)=C/C(=O)O)C(C(C)C)=CC(C)(C)O2 [Compound 43]
A. 13

Q. Supply recorded EC50 for CCCOc1cc2c(cc1\C(C)=C(F)/C=C/C(C)=C/C(=O)O)C(c1ccccc1)=CC(C)(C)O2 [Compound 128] here.
A. 14

Q. # return recorded EC50 for input CCOc1cc2c(cc1\C(C)=C(F)/C=C/C(C)=C/C(=O)O)C(c1ccccc1)=CC(C)(C)O2 [Compound 127]
A. 245

Q. Look up and state reported EC50 for CCOc1cc2c(cc1\C(CC)=C(F)/C=C/C(C)=C/C(=O)O)C(CC)=CCC2(C)C [Compound A-78]
A. 29

Q. Return EC50 (reported value) for this compound: CCOc1cc2c(cc1\C(C)=C/C=C/C(C)=C/C(=O)O)C(CC)=CC(C)(C)O2 [Compound 45]
A. 121

---

Target sequence: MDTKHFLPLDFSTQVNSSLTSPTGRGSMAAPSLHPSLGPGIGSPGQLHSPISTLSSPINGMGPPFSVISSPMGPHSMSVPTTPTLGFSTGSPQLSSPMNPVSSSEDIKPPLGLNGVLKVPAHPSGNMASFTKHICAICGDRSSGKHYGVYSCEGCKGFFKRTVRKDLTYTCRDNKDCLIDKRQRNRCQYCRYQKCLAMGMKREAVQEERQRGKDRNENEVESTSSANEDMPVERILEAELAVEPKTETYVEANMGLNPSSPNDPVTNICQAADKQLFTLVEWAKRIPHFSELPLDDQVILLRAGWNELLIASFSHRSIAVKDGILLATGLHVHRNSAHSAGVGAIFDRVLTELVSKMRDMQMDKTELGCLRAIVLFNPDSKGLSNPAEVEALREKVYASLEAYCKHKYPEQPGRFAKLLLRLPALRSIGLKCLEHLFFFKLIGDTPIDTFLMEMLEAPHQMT
Observed property: pKd
Remember, pKd is on a log scale: it is -log10 of the molar concentration.

Q. Provide pKd value for the following compound: CCOc1c(\C(C)=C(F)/C=C/C(C)=C/C(=O)O)cc2c(c1Cl)C(C)(C)CC=C2C(C)C [Compound A-177]
A. 8.70

Q. Tell me its pKd given CCOc1c(\C(=C(F)/C=C/C(C)=C/C(=O)O)C(C)C)cc2c(c1Br)C(C)(C)CC=C2C(C)C [Compound A-171] as the entry.
A. 8.70

Q. Indicate the recorded pKd value for this compound: CC(/C=C/C(F)=C(/C)c1cc2c(c(Br)c1OC(C)C)C(C)(C)CC=C2C(C)C)=C\C(=O)O [Compound A-172]
A. 8.10
